Tested on: HeLa cells
Assay: WST-1 cell viability assay, HeLa
Assay type: cell-based, human
Details: HeLa 72 h, WST-1
Procedure: Since it is an unstable amino acid, the medium was supplemented with L-glutamine immediately prior. WST-1 Cell Proliferation test, a product of the Roche Company is a colourimetric assay based on the cleavage of a tetrazolium salt by mitochondrial dehydrogenases to generate formazan in living cells. This assay is simple because only 10 μL of WST-1 reactant is added to 100 μL media on a 96-well plate. The cells were counted with a haemocytometer immediately before the subsequent procedures. […]
metric_name: pIC50
Lab note — pIC50 values are minus log10 of concentrations in M.

Per the record, N.N.[Cl][Pt][Cl] [Cisplatin, cisplatin, reference compound] has pIC50 of 5.21

----------
system: PNT1-A cells; assay: WST-1 cell viability assay, PNT1-A; assay type: cell-based, human; settings: PNT1-A 24 h
metric_name: IC50 (µM)
Dear colleague, please return just the value in µM, with no unit written.

IC50 recorded for this compound, N.N.[Cl][Pt][Cl] [Cisplatin, cisplatin, reference compound] , is 13.4

----------
test system: HeLa cells; assay: WST-1 cell viability assay, HeLa; assay type: cell-based, human; conditions: HeLa 24 h, WST-1
metric_name: IC50 (µM)
Please respond with the number in µM and leave the unit unwritten.

HeLa cells assay, compound N.N.[Cl][Pt][Cl] [Cisplatin, cisplatin, reference compound] , recorded IC50 = 28.9
